biological target: DNA gyrase (Staphylococcus aureus) (UniProt P0A0K8+P20831); test: In vitro antibacterial activity against gram-positive organism Staphylococcus aureus ATCC 6538p; type: functional
Sequence (P0A0K8 2-644 limits assumed): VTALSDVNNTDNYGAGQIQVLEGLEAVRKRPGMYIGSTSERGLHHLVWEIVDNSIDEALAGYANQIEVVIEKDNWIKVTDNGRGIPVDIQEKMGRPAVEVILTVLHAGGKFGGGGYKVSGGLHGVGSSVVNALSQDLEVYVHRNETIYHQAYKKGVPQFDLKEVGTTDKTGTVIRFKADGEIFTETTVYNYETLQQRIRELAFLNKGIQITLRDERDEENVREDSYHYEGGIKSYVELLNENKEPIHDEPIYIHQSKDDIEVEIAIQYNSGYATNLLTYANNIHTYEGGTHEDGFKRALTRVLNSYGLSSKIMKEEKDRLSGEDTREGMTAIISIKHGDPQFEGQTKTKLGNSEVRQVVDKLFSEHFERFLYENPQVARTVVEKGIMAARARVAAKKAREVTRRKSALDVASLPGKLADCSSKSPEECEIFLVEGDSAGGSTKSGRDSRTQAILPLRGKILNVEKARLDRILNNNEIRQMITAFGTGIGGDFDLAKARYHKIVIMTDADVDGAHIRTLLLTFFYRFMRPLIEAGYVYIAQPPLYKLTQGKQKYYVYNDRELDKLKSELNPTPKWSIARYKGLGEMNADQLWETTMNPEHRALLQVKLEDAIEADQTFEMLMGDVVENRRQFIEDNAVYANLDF
Sequence (P20831 whole entry partner): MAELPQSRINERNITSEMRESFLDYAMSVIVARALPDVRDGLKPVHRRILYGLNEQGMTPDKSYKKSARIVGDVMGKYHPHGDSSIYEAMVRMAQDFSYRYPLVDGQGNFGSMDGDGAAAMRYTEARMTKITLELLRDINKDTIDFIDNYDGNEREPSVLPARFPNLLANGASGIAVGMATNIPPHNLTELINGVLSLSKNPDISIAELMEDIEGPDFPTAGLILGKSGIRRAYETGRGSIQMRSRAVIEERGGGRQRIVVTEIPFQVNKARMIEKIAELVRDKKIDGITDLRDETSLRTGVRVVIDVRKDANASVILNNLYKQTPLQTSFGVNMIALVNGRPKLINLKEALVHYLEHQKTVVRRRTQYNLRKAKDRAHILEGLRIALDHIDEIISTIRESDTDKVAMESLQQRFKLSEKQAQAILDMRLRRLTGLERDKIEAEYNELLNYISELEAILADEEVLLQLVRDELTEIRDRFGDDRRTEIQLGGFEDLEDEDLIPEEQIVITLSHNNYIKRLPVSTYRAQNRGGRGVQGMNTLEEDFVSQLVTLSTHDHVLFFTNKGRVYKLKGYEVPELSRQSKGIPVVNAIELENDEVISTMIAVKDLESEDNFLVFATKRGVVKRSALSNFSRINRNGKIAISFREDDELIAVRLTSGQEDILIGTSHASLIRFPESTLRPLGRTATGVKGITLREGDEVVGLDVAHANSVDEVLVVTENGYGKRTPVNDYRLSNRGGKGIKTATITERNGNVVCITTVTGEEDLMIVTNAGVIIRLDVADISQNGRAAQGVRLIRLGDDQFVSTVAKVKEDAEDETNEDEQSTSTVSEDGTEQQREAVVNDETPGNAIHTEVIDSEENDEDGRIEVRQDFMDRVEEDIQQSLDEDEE
property: MIC (µg/mL)
Output spec: scalar in µg/mL, unitless text.

Looking up Cc1c(N2CCC(n3cccc3)C2)c(F)cn2c(=O)c(C(=O)O)cc(C3CC3)c12 (configuration not stated) , I see its MIC listed as 0.02

Reported MIC ( NC1CCN(c2c(F)cn3c(=O)c(C(=O)O)cc(C4CC4)c3c2F)C1 (configuration not stated) ) = 0.1

Short answer for `Cc1c(N2CC[C@H](O)C2)c(F)cn2c(=O)c(C(=O)O)cc(C3CC3)c12` : MIC was 0.005

Entry Cc1c(N2C[C@@H]3CCCN[C@@H]3C2)c(F)cn2c(=O)c(C(=O)O)cc(C3CC3)c12 (stereo in doubt; 45n) ; MIC = 0.01

For NC1CCN(c2nc3c(C4CC4)cc(C(=O)O)c(=O)n3cc2F)C1 (configuration not stated) the molecule record lists MIC as 0.2

Per the record, `O=C(O)c1cc(C2CC2)c2nc(N3CCNCC3)c(F)cn2c1=O` has MIC of 0.78

molecule `Cc1c(N2C[C@@H](C)N[C@@H](C)C2)c(F)cn2c(=O)c(C(=O)O)cc(C3CC3)c12` , MIC observed: 0.1

The reported MIC of the molecule CCc1cc(C(=O)O)c(=O)n2ccc(N3CCC(N)C3)cc12.Cl (configuration not stated) was 3.1

MIC in this record for Cc1c(N2C[C@@H]3CCN[C@@H]3C2)c(F)cn2c(=O)c(C(=O)O)cc(C3CC3)c12 (stereo in doubt; (S,S)45o) : 0.05

Reported MIC of NC1CCN(c2nc3c(-c4ccc(F)cc4F)cc(C(=O)O)c(=O)n3cc2F)C1 (configuration not stated) : 0.1

Memo: `Cc1c(N2C[C@@H](N)[C@@H](C)C2)c(F)cn2c(=O)c(C(=O)O)cc(C3CC3)c12` , reported MIC: 0.02

// MIC value for `Cc1c(N2CCCNCC2)c(F)cn2c(=O)c(C(=O)O)cc(C3CC3)c12` : 0.1

MIC reading for `O=C(O)c1cc(C2CC2)c2nc(N3CCOCC3)c(F)cn2c1=O` : 6.2

For record `Cc1c(NCCN)c(F)cn2c(=O)c(C(=O)O)cc(C3CC3)c12` the listed MIC is 0.78

Reported MIC for Cc1c(N2CCC(C)(N)C2)c(F)cn2c(=O)c(C(=O)O)cc(C3CC3)c12 (configuration not stated) was 0.02

Looking up Cc1c(N2CCC(N)C2)c(F)cn2c(=O)c(/C(O)=C/[N+](=O)[O-])cc(C3CC3)c12 (configuration not stated) , I found its MIC recorded as 0.05

response.value for `CO[C@@H]1CN(c2c(F)cn3c(=O)c(C(=O)O)cc(C4CC4)c3c2C)C[C@H]1N` (field: MIC) = 0.05

Please fill in: MIC reported for `Cc1c(N2C[C@@H](N)C[C@H]2C)c(F)cn2c(=O)c(C(=O)O)cc(C3CC3)c12` = 0.01

Measured MIC, `Cc1c(N2C[C@@H](N)C[C@@H]2C)c(F)cn2c(=O)c(C(=O)O)cc(C3CC3)c12` : 0.01

For this molecule ( NC1CCN(c2nc3c(-c4c(F)c(F)c(F)c(F)c4F)cc(C(=O)O)c(=O)n3cc2F)C1 (configuration not stated) ), measured MIC is 50

molecule CCc1cc(C(=O)O)c(=O)n2cc(F)c(N3CCC(N)C3)c(C)c12 (configuration not stated) , MIC observed: 0.1

Measured MIC of Cc1ccc(S(=O)(=O)O)cc1.NC1CCN(c2nc3c(cc2F)c(=O)c(C(=O)O)cn3-c2ccc(F)cc2F)C1 (configuration not stated) [TOSUFLOXACIN TOSYLATE] : 0.05

Record summary for `CN1CCN(c2nc3c(C4CC4)cc(C(=O)O)c(=O)n3cc2F)CC1` : reported MIC = 1.56

The molecule identified as Cc1c(N2CCC(N(C)C)C2)c(F)cn2c(=O)c(C(=O)O)cc(C3CC3)c12 (configuration not stated) registered its MIC at 0.05

Looking up `Cc1c(N2CC[C@@H]([C@@H](C)N)C2)c(F)cn2c(=O)c(C(=O)O)cc(C3CC3)c12` , I see its MIC listed as 0.002

Reported MIC for Cc1c(N2C[C@H]3CCCN[C@H]3C2)c(F)cn2c(=O)c(C(=O)O)cc(C3CC3)c12 (single isomer, unassigned) was 0.05

Lookup result for `C[C@H]1C[C@H](N)CN1c1nc2c(-c3ccc(F)cc3F)cc(C(=O)O)c(=O)n2cc1F` ; measured MIC: 0.1

Lab book: MIC of `CN1CCN(c2nc3c(-c4ccc(F)cc4F)cc(C(=O)O)c(=O)n3cc2F)CC1` noted as 0.2

Entry Cc1c(F)c(N2CCC(N)C2)cc2c(C3CC3)cc(C(=O)O)c(=O)n12 (configuration not stated) , MIC reported as 0.78

So, COc1c(N2CCC(N)C2)c(F)cn2c(=O)c(C(=O)O)cc(C3CC3)c12 (configuration not stated) ? Its MIC was 0.05

Lab note: `CC(=O)N[C@H]1C[C@H](C)N(c2nc3c(-c4ccc(F)cc4F)cc(C(=O)O)c(=O)n3cc2F)C1` gave MIC of 0.1

The value of MIC measured for the molecule CNC1CCN(c2c(F)cn3c(=O)c(C(=O)O)cc(C4CC4)c3c2C)C1 (configuration not stated) turned out to be 0.02

Lookup result for `Cc1c(N2CC[C@@]3(C[C@@H]3N)C2)c(F)cn2c(=O)c(C(=O)O)cc(C3CC3)c12` ; measured MIC: 0.002

Lookup result for COc1ccc(-c2cc(C(=O)O)c(=O)n3cc(F)c(N4CCC(N)C4)nc23)cc1 (configuration not stated) ; measured MIC: 50

For this molecule ( NC1CCN(c2c(F)cn3c(=O)c(C(=O)O)cc(C4CC4)c3c2Cl)C1 (configuration not stated) ), measured MIC is 0.2

Reported MIC ( O=C(O)c1cc(-c2ccc(F)cc2F)c2nc(N3CCC(O)C3)c(F)cn2c1=O (configuration not stated) ) = 0.05

Attribution: ChEMBL document CHEMBL1129258
